# Lookup of reported variant/HC_D62R keyed by entry
TARGET_UNDER_TEST: T1, human tissue factor pathway inhibitor (TFPI) (human, UniProt P10646 29-304, limits assumed)
T1 construct: bought; also called hTFPI; human TFPI
T1 sequence (looked up): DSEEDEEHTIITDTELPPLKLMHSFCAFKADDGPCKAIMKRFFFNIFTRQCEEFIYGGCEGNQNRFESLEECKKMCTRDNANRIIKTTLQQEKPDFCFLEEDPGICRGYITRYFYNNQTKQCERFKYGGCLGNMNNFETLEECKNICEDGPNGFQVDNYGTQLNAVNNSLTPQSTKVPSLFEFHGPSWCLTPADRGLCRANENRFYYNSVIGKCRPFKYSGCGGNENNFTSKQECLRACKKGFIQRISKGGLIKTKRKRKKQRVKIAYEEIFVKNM
PROTOCOL: competitive ELISA
Output spec: scalar in ratio, unitless text.

The examples below pair each entry with its known result.
BINDER | DISPLAY_UNIT | variant/HC_D62R
4B7 HC N32D+D62R+Y112D/LC S32R+D33F+N35I+N39D+D97T (Fab, V domains shown) VH: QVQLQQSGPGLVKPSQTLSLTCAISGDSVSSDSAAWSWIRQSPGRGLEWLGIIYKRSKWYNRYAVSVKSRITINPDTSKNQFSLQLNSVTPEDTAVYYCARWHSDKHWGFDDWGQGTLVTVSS VL: DIVMTQSPLSLPVTPGEPASISCRSSQSLVFRFGITYLDWYLQKPGQSPQLLIYKGSNRASGVPDRFSGSGSGTDFTLKISRVEAEDVGVYYCQQYTSYPLTFGQGTKVEIKR | ratio | 1.3
4B7 HC N32D+D62Q+Y112D/LC F31I+D33F+N35I+T36N (Fab, V domains shown) VH: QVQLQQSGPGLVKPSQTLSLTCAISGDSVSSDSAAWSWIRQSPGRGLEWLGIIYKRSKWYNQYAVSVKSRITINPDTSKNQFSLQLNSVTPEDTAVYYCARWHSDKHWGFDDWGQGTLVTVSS VL: DIVMTQSPLSLPVTPGEPASISCRSSQSLVISFGINYLNWYLQKPGQSPQLLIYKGSNRASGVPDRFSGSGSGTDFTLKISRVEAEDVGVYYCQQYDSYPLTFGQGTKVEIKR | ratio | 27.3
4B7 HC N32D+S37N+D62R+Y112D/LC S32R+D33F+N35I+D97T (Fab, V domains shown) VH: QVQLQQSGPGLVKPSQTLSLTCAISGDSVSSDSAAWNWIRQSPGRGLEWLGIIYKRSKWYNRYAVSVKSRITINPDTSKNQFSLQLNSVTPEDTAVYYCARWHSDKHWGFDDWGQGTLVTVSS VL: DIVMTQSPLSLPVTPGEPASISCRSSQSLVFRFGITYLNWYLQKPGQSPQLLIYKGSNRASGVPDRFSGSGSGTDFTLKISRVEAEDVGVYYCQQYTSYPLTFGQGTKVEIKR | ratio | 1.9
4B7 HC N32D+D62R+H107M+Y112D/LC F31M+S32R+D33R+N35T (Fab, V domains shown) VH: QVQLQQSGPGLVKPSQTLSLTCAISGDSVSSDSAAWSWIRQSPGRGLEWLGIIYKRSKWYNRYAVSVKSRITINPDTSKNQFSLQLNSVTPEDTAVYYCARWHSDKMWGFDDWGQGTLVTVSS VL: DIVMTQSPLSLPVTPGEPASISCRSSQSLVMRRGTTYLNWYLQKPGQSPQLLIYKGSNRASGVPDRFSGSGSGTDFTLKISRVEAEDVGVYYCQQYDSYPLTFGQGTKVEIKR | ratio | 17

Please turn your attention to the following entry.
Exercise: Find the measured variant/HC_D62R of 4B7 HC N32D+D62R+Y112D/LC S32R+D33F+N35I+Q50R+D97T (Fab, V domains shown) VH: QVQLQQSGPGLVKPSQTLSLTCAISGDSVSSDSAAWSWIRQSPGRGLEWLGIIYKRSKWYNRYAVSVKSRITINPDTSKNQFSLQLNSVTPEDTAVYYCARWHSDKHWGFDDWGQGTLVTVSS VL: DIVMTQSPLSLPVTPGEPASISCRSSQSLVFRFGITYLNWYLQKPGQSPRLLIYKGSNRASGVPDRFSGSGSGTDFTLKISRVEAEDVGVYYCQQYTSYPLTFGQGTKVEIKR and report it.
Key: 25.9
